# Test system: TK-10 renal
# ASSAY: NCI tumour cell line growth inhibition, 48 h; in the data active means GI50 below about 0.43 µM; inactive means the rest
Possible outcomes: Y for active, N for inactive

SMI: Cn1cc(-c2ccc(-c3ccc(C4=NC5(CC5)C(=O)N4C[C@@H]4CCN(C(=O)C5CC5)C4)cc3)cc2)cn1
TARGET OF ASSAY: TK-10 renal
GROUP LABEL: N
--
SMI: CN(C)c1ccc(/C=C/c2cc[n+](C)c(/C=C/c3ccc(N(C)C)cc3)c2)cc1
TARGET OF ASSAY: TK-10 renal
GROUP LABEL: Y
--
SMI: O=C1CCc2c(sc3[nH]c(=S)n(Cc4ccc(Cl)cc4)c(=O)c23)C1
TARGET OF ASSAY: TK-10 renal
GROUP LABEL: N
--
SMI: CCOC(=O)c1c2c(n3ccccc13)C(=O)c1ncccc1C2=O
TARGET OF ASSAY: TK-10 renal
GROUP LABEL: Y
--
SMI: CCCCCCCc1cc2c3c(nc4ccccc42)C(=O)c2cccnc2-c3n1
TARGET OF ASSAY: TK-10 renal
GROUP LABEL: N

====

Catalogue of compounds with associated TGI
# System: SF-539 CNS
# ASSAY: NCI tumour cell line growth inhibition, 48 h

COMPOUND: CN(C)c1ccc(/C=C/c2cc[n+](C)c(/C=C/c3ccc(N(C)C)cc3)c2)cc1
QUALIFIER: =
TGI / µM: 3.01
//
COMPOUND: O=C(OC[C@H]1O[C@H](OC(=O)c2cc(O)c(O)c(OC(=O)c3cc(O)c(O)c(O)c3)c2)[C@H](OC(=O)c2cc(O)c(O)c(OC(=O)c3cc(O)c(O)c(O)c3)c2)[C@@H](OC(=O)c2cc(O)c(O)c(OC(=O)c3cc(O)c(O)c(O)c3)c2)[C@@H]1OC(=O)c1cc(O)c(O)c(OC(=O)c2cc(O)c(O)c(O)c2)c1)c1cc(O)c(O)c(OC(=O)c2cc(O)c(O)c(O)c2)c1
QUALIFIER: >
TGI / µM: 25
//
COMPOUND: CCN1CCC(O)(c2ccc(Cl)cc2)C(C(=O)c2ccc(Cl)cc2)C1 (stereo unspecified)
QUALIFIER: >
TGI / µM: 100
//
COMPOUND: O=C1C(Cl)=C(Nc2ccc(S(=O)(=O)Nc3ccccn3)cc2)C(=O)c2ccccc21
QUALIFIER: =
TGI / µM: 10.3
//
COMPOUND: C=C1C(=O)O[C@H]2[C@H]1CC/C(Cn1cc(-c3ccccc3C(F)(F)F)nn1)=C\CC[C@@]1(C)O[C@@H]21
QUALIFIER: =
TGI / µM: 3.56
//
COMPOUND: COc1cccc(NC(=O)/C(Cc2nc3ccccc3nc2C)=N/NC(=O)C[n+]2ccccc2)c1
QUALIFIER: >
TGI / µM: 100

====

Catalogue of molecules with associated log10 of TGI
# Test system: SK-MEL-5 melanoma
# ASSAY: NCI tumour cell line growth inhibition, 48 h
QUANTITY: log10 of TGI (log10 of the value in µM)

MOLECULE: CCC(=O)Nc1ccc(N2C(=O)C(Cl)C2c2ccc(SC)cc2)cc1 (centres undefined)
TARGET OF ASSAY: SK-MEL-5 melanoma
log10 of TGI: 1.90
--
MOLECULE: CCN1CCN(CC(=O)N2c3cccc4cccc(c34)N(C(=O)CN3CCN(CC)CC3)C2c2cn(-c3ccccc3)nc2-c2cccc([N+](=O)[O-])c2)CC1
TARGET OF ASSAY: SK-MEL-5 melanoma
log10 of TGI: 0.51
--
MOLECULE: O=C1C(Cl)=C(NCc2ccco2)C(=O)c2ccccc21
TARGET OF ASSAY: SK-MEL-5 melanoma
log10 of TGI: 0.49
--
MOLECULE: CN(C)c1ccc(/C=C/c2cc[n+](C)c(/C=C/c3ccc(N(C)C)cc3)c2)cc1
TARGET OF ASSAY: SK-MEL-5 melanoma
log10 of TGI: -0.33
--
MOLECULE: N[C@H]1CCCC[C@@H]1N1C(=O)c2ccccc2C1(O)c1ccc(Cl)cc1 (some centres undefined)
TARGET OF ASSAY: SK-MEL-5 melanoma
log10 of TGI: 1.35
--
MOLECULE: O=C(/C=C/c1ccc(C(F)(F)F)cc1)c1ccc(Nc2nc(NCCO)nc(Nc3ccc(Cl)cc3)n2)cc1
TARGET OF ASSAY: SK-MEL-5 melanoma
log10 of TGI: 1.47
--
MOLECULE: CCN(CC)c1ccc(N=Nc2ccc(-c3nc4ccc[n+](C)c4o3)cc2)cc1
TARGET OF ASSAY: SK-MEL-5 melanoma
log10 of TGI: 1.04
